Test: molar heat capacity at constant pressure
Conditions: 365.15 K; 101.33 kPa; Liquid; Small sample (50 mg) DSC
Measured molar heat capacity at constant pressure of individual entries
Please respond with the number in J/K/mol and leave the unit unwritten.

[
  {
    "molecule": "CCCC[n+]1ccccc1.O=S(=O)([N-]S(=O)(=O)C(F)(F)F)C(F)(F)F [1-butylpyridinium bis[(trifluoromethyl)sulfonyl]imide]",
    "molar heat capacity at constant pressure, J/K/mol": 607
  },
  {
    "molecule": "CCCCCCCCn1cc[n+](C)c1.O=S(=O)([O-])C(F)(F)F [1-octyl-3-methylimidazolium trifluoromethanesulfonate]",
    "molar heat capacity at constant pressure, J/K/mol": 637
  },
  {
    "molecule": "CCCCn1cc[n+](C)c1.O=S(=O)([O-])C(F)(F)F [1-butyl-3-methylimidazolium trifluoromethanesulfonate]",
    "molar heat capacity at constant pressure, J/K/mol": 473
  },
  {
    "molecule": "CCn1cc[n+](C)c1.O=S(=O)([O-])C(F)(F)F [1-ethyl-3-methylimidazolium trifluoromethanesulfonate]",
    "molar heat capacity at constant pressure, J/K/mol": 403
  },
  {
    "molecule": "O",
    "molar heat capacity at constant pressure, J/K/mol": 75.72
  },
  {
    "molecule": "CCCCCCn1cc[n+](C)c1.O=S(=O)([O-])C(F)(F)F [1-hexyl-3-methylimidazolium trifluoromethanesulfonate]",
    "molar heat capacity at constant pressure, J/K/mol": 554
  }
]

Next:
Entry CCCCCC[n+]1ccn(C)c1.O=S(=O)([N-]S(=O)(=O)C(F)(F)F)C(F)(F)F has what molar heat capacity at constant pressure?
696

====

The entries below come with measured molar heat capacity at constant pressure values attached.
Experiment: molar heat capacity at constant pressure
Conditions: 345.15 K; 101.33 kPa; Liquid; Small sample (50 mg) DSC
Please give a number only; it is taken to be in J/K/mol.

Known results for compounds:
[
  {
    "compound": "CCCC[n+]1ccccc1.O=S(=O)([N-]S(=O)(=O)C(F)(F)F)C(F)(F)F [1-butylpyridinium bis[(trifluoromethyl)sulfonyl]imide]",
    "readout units": "J/K/mol",
    "molar heat capacity at constant pressure": 596
  },
  {
    "compound": "CCCCCC[n+]1ccn(C)c1.O=S(=O)([N-]S(=O)(=O)C(F)(F)F)C(F)(F)F",
    "readout units": "J/K/mol",
    "molar heat capacity at constant pressure": 686
  },
  {
    "compound": "c1ccccc1",
    "readout units": "J/K/mol",
    "molar heat capacity at constant pressure": 149.3
  },
  {
    "compound": "CCCCn1cc[n+](C)c1.O=S(=O)([O-])C(F)(F)F [1-butyl-3-methylimidazolium trifluoromethanesulfonate]",
    "readout units": "J/K/mol",
    "molar heat capacity at constant pressure": 462
  }
]

Next item in the queue.
Need molar heat capacity at constant pressure of CCCCCCn1cc[n+](C)c1.O=S(=O)([O-])C(F)(F)F [1-hexyl-3-methylimidazolium trifluoromethanesulfonate] , thanks.
541

====

molar heat capacity at constant pressure overview
Test: molar heat capacity at constant pressure
Details: 378.15 K; 101.33 kPa; Liquid; modulated-temperature differential scanning calorimetry MDSC
// note: answer is a bare numeric in J/K/mol

[
  {
    "molecule": "CCCCCCCCn1cc[n+](C)c1.O=S(=O)([O-])C(F)(F)F [1-octyl-3-methylimidazolium trifluoromethanesulfonate]",
    "molar heat capacity at constant pressure, J/K/mol": 631
  },
  {
    "molecule": "CCCC[n+]1ccccc1.O=S(=O)([N-]S(=O)(=O)C(F)(F)F)C(F)(F)F [1-butylpyridinium bis[(trifluoromethyl)sulfonyl]imide]",
    "molar heat capacity at constant pressure, J/K/mol": 628
  }
]

Note: attention shifts to another entry.
Would you mind telling me what molar heat capacity at constant pressure value was observed for CCCCCC[n+]1ccn(C)c1.O=S(=O)([N-]S(=O)(=O)C(F)(F)F)C(F)(F)F ?
709
